# ASSAY NOTES: Solubility of the compound
# Type: physicochemical
Give solubility for every item shown.
Write the answer as a number in µg/mL, unit excluded.

What measured solubility goes with `CCc1ccc(-n2c(Cl)cc3[nH]c(=O)c(-c4ccccc4)c(O)c32)cc1` ? 20

What measured solubility goes with `Cc1ccc(-c2ccc(-n3c(Cl)cc4[nH]c(=O)c(C#N)c(O)c43)cc2)cc1` ? 129

What measured solubility goes with `COc1cccc(-c2ccc(-n3c(Cl)cc4[nH]c(=O)c(C#N)c(O)c43)cc2)c1O` ? 42.5

What measured solubility goes with `COc1cccc(-c2ccc(-n3ccc4[nH]c(=O)c(C#N)c(O)c43)cc2)c1O` ? 500

----------
# ASSAY NOTES: Permeability of the compound by PAMPA
# Type: ADME
# TEST CONDITIONS: read-out: permeability
Give Papp for every item shown.

What measured Papp goes with `N#Cc1c(O)c2c(cc(Cl)n2-c2ccc(-c3ccsc3)cc2)[nH]c1=O` ? < 0.07 ×10⁻⁶ cm/s

What measured Papp goes with `CCc1ccc(-n2c(Cl)cc3[nH]c(=O)c(-c4ccccc4)c(O)c32)cc1` ? 15 ×10⁻⁶ cm/s

What measured Papp goes with `N#Cc1c(O)c2c(-c3ccc(-c4ccccc4O)cc3)csc2[nH]c1=O` ? < 0.3 ×10⁻⁶ cm/s

What measured Papp goes with `Cc1ccc(-c2ccc(-n3c(Cl)cc4[nH]c(=O)c(C#N)c(O)c43)cc2)cc1` ? 0.48 ×10⁻⁶ cm/s

What measured Papp goes with `COc1cccc(-c2ccc(-n3c(Cl)cc4[nH]c(=O)c(-c5cccc(C(=O)O)c5)c(O)c43)cc2)c1O` ? < 0.06 ×10⁻⁶ cm/s

What measured Papp goes with `COc1cccc(-c2ccc(-n3c(Cl)cc4[nH]c(=O)c(C#N)c(O)c43)cc2)c1O` ? < 0.3 ×10⁻⁶ cm/s

What measured Papp goes with `COc1cccc(-c2ccc(-n3ccc4[nH]c(=O)c(C#N)c(O)c43)cc2)c1O` ? < 0.04 ×10⁻⁶ cm/s

What measured Papp goes with `COc1ccc(-c2ccc(-n3ccc4[nH]c(=O)c(C#N)c(O)c43)cc2)cc1` ? < 0.08 ×10⁻⁶ cm/s

What measured Papp goes with `COc1cccc(-c2ccc(-n3c(Cl)cc4[nH]c(=O)c(-c5ccccc5)c(O)c43)cc2)c1O` ? 11 ×10⁻⁶ cm/s

----------
# ASSAY NOTES: Oral bioavailability in mouse at 30 mg/kg
# Format: ADME, organism-based
# TEST CONDITIONS: in vivo
READOUT NAME: bioavailability (%)
Write the answer as a number in %, unit excluded.

What measured bioavailability goes with `N#Cc1c(O)c2c(ccn2-c2ccc(-c3ccccc3O)cc2)[nH]c1=O` ? 10

----------
Give pEC200 for every item shown.
# SYSTEM TESTED: AMP-activated protein kinase (AMPK) alpha-1/beta-1/gamma-1 (Homo sapiens) (UniProt P54619+Q9Y478+Q13131)
# Sequence (P54619 whole entry): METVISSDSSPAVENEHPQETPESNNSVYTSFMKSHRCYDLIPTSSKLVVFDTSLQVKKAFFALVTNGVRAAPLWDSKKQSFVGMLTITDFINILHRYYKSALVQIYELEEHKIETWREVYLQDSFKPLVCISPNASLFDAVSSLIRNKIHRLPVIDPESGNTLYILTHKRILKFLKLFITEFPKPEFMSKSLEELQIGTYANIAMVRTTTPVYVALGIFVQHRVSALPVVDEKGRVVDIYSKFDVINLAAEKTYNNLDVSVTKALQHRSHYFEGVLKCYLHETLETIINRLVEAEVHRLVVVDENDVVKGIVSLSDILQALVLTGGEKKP
# Sequence (Q13131 whole entry partner): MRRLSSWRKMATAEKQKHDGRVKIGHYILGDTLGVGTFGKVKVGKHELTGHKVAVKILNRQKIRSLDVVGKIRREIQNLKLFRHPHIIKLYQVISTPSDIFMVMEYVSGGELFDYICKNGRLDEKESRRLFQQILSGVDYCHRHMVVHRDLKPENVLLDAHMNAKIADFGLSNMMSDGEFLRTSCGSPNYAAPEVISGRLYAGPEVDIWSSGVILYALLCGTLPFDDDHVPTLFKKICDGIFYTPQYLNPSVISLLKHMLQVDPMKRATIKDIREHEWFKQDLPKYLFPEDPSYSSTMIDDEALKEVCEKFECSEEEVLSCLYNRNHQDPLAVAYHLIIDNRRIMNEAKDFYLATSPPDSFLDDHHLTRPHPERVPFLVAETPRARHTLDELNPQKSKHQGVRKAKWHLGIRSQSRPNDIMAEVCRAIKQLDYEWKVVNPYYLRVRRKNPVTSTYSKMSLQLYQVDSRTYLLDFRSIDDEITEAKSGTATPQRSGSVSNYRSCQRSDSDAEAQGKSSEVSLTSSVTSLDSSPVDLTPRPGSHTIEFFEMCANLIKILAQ
# Sequence (Q9Y478 2-270 partner limits assumed): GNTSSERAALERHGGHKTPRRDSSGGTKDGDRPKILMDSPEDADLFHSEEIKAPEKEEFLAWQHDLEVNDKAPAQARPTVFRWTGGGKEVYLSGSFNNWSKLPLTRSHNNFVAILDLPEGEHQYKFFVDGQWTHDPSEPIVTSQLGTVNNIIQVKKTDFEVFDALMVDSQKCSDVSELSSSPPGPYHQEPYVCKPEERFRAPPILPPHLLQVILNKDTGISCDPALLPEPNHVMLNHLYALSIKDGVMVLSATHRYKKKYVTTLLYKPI
# ASSAY NOTES: Activation of human recombinant AMPK alpha1beta1gamma1 by FRET assay
# Assay type: protein-complex assay

What measured pEC200 goes with `N#Cc1c(O)c2c(ccn2-c2ccc(-c3ccccc3O)cc2)[nH]c1=O` ? 7.8

What measured pEC200 goes with `N#Cc1c(O)c2c(cc(Cl)n2-c2ccc(-c3ccsc3)cc2)[nH]c1=O` ? 8.1

What measured pEC200 goes with `COc1ccc(-c2ccc(-n3ccc4[nH]c(=O)c(C#N)c(O)c43)cc2)cc1` ? 6.8

What measured pEC200 goes with `COc1cccc(-c2ccc(-n3ccc4[nH]c(=O)c(C#N)c(O)c43)cc2)c1O` ? 8

Entry source: ChEMBL document CHEMBL2406937
